Molecular target: HLA-B*54:01
Assay: IEDB peptide-MHC binding, purified MHC/competitive/radioactivity; filed as Kd, often an IC50 or EC50 that approximates it; bounds were set here for any values at or beyond the usual limits of such assays
Conditions: source organism: Mammarenavirus guanaritoense
reported.metric: Kd (nM)
Note: unit nM is implicit; provide only the numeric part.

Task item: For the sequence LPNTLVFQA , give its measured Kd value.
Reply: 8.14

====

Molecular target: HLA-B*35:01
Assay: IEDB peptide-MHC binding, purified MHC/competitive/fluorescence; filed as Kd, often an IC50 or EC50 that approximates it; bounds were set here for any values at or beyond the usual limits of such assays
Details: source organism: Mycobacterium tuberculosis C
reported.metric: Kd

Task item: # assay system HLA-B*35:01: give Kd of WPVLGSEVL
Reply: ≤ 0.1 nM
